FYI, the data here is from patent US8552201B2.

Target: urotensin II receptors (rat aorta rings) (Rattus norvegicus, UniProt P49684)
Construct: The aortas are removed, washed and, after removing the endothelium, are cut into 4 rings; from tissue; host or cells: rat thoracic aorta rings, endothelium removed (Sprague-Dawley)
Sequence (P49684 whole entry): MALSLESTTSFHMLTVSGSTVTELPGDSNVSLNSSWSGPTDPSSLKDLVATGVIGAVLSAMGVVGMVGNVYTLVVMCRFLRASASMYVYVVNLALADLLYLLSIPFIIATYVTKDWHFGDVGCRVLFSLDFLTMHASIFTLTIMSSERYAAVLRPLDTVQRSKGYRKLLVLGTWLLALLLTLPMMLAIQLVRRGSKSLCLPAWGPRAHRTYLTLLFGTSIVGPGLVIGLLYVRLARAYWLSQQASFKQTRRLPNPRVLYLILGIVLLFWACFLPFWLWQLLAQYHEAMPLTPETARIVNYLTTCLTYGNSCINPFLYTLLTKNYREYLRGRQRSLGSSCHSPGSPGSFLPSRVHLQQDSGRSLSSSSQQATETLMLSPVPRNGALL
Assay: Contraction of rat aorta rings induced by human urotensin II
Conditions: endothelium-denuded Sprague-Dawley rat aorta rings, antagonist added 30 min before urotensin II, single concentration
Description: The compounds according to the invention have undergone pharmacological testing for determining the properties of the compounds of the invention, including in particular: • a test in vitro of intracellular calcium mobilization (FlipR test) employing urotensin II antagonists (the compounds of the present invention) of the human GPR14 receptor, • a function test of contraction of rat aorta rings, also employing urotensin II antagonists represented by the compounds of the present invention. 2. […]
Structures can show the parent of a compound that is named as a salt.
outcomeMeasure: Kb

| compound | testedTarget | outcomeMeasure | recordedResult |
| --- | --- | --- | --- |
| CN(C)CCCOc1cc(-c2nc(C(=O)NC3(C(=O)O)CCCCC3)ccc2-c2ncc(Cl)cc2Cl)ccc1Cl [compound 65, hydrochloride] | urotensin II receptors (rat aorta rings) (Rattus norvegicus, UniProt P49684) | Kb | 316 nM |
| Cc1ccc(C)c(-c2ccc(C(=O)NC3(C(=O)O)CCCCC3)nc2-c2ccc(Cl)c(OCCCN(C)C)c2)c1 [compound 70] | urotensin II receptors (rat aorta rings) (Rattus norvegicus, UniProt P49684) | Kb | 631 nM |
| Cc1ccc(-c2ncc(C(=O)NC3(C(=O)O)CCCCC3)nc2-c2ccc(Cl)c(OCCCN(C)C)c2)c(C)c1 [compound 123] | urotensin II receptors (rat aorta rings) (Rattus norvegicus, UniProt P49684) | Kb | 316 nM |
| COc1ccc(-c2ccc(C(=O)NC3(C(=O)O)CCCCC3)nc2-c2ccc(Cl)c(OCCCN(C)C)c2)c(Cl)c1 [compound 79] | urotensin II receptors (rat aorta rings) (Rattus norvegicus, UniProt P49684) | Kb | 158 nM |
| Cc1cc(C)n(-c2ccc(C(=O)NC3(C(=O)O)CCCCC3)nc2-c2ccc(Cl)c(OCCCN(C)C)c2)n1 [compound 75, hydrochloride] | urotensin II receptors (rat aorta rings) (Rattus norvegicus, UniProt P49684) | Kb | 251 nM |
| Cc1ccc(-c2ccc(C(=O)NC3(C(=O)O)CCCCC3)nc2-c2ccc(Cl)c(OCCCN(C)C)c2)c(C)c1 [compound 66, hydrochloride] | urotensin II receptors (rat aorta rings) (Rattus norvegicus, UniProt P49684) | Kb | 200 nM |
| Cc1ncccc1-c1ccc(C(=O)NC2(C(=O)O)CCCCC2)nc1-c1ccc(Cl)c(OCCCN(C)C)c1 [compound 61] | urotensin II receptors (rat aorta rings) (Rattus norvegicus, UniProt P49684) | Kb | 79.4 nM |
